# SUBJECT OF TEST: T1, OX40 (antigen of the competitive ELISA of Example 5) (UniProt P43489 29-214)
# T1 sequence (looked up): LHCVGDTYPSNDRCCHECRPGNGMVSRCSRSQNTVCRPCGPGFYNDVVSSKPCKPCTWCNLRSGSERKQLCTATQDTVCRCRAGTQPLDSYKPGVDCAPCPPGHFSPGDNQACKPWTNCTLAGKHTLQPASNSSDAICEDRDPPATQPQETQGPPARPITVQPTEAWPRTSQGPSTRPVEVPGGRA
# ASSAY PROCEDURE: competitive ELISA; competitor MEDI0562
QUANTITY NAME: percentage of competition (%)
Reply with just the number (in %).

May I ask what percentage of competition has been recorded for MAb035 (antibody, IgG1, V domains shown) VH: QVQLQQSGAELVRPGASVTLSCKASDYTFTDYEMHWVYQTPVHGLEWIGAIDPETGGTAYNQKFKDKAILTADKSSNTAYMELRSLTSEDSAVYFCTKTGYQFDYWGQGTTLTVSS VL: DIVMTQSQKFMSTSVGDRVSVTCKASQNVGSNVAWYQQKPGQSPKALIYSASYRYSGVPDRFAGSGSGTDFTLTISNVQSEDLADYFCQQYNSHPYTFGGGTKLEIK ?
59

Repeat for the following binder: MAb058 (antibody, IgG1, V domains shown) VH: EVQLQQSGPVLVKPGAAVKMSCKASGYIFTDYYIHWVKLSRGESLEWIGLINPYNGGTNYNQQFTGKATLTVDKSSSTAYVELNSLTSGDSAVYYCVRRTGYFDYWGQGTTLTVSS VL: DVVMTQTPLSLPVSLGDQASISCRSSQSLVHSNGNTYLHWYLQKPGQSPKLLIYKVSNRFSGVPDRFSGSGSGTDFTLKISRVEAEDLGVYFCSQTTHVPYTFGGGTKLEIK
26

Same question, MAb055 (antibody, IgG1, V domains shown) VH: QVQLKQSGPGLLQPSQSLSITCTVSGFSLDEYGVHWFRQSPGKGLEWLGVIWSGGSTDYNAAFISRLSIRKDNSKSQIFFNMNSLQADDTAIYYCVREEWEYWGQGTTLTVS VL: DIQMTQTTSSLSASLGDRVTISCRPSQDIDNYLNWFQQRPDGTIKLLIYYTSRLHSGVPSRFSGSGSGTDYSLTINNLEQEDIATYFCQQAHTLPYTFGGGTKLEIK this time
16
